# assay.system: T1, genetically modified and chemically inactivated C. difficile toxoid A (Clostridium difficile, UniProt P16154 2-2710)
# T1 construct: also called TxdA; the toxoid
# experiment: ITC
parameter: Kd (nM)
Unit nM implied. Number only.

**Query** Request the reported Kd associated with hCDIFA-29 (antibody, V domains shown) VH: EVQLLESGAEVKKPGASIRVSCKASGHSFTDSFTDYYFHWVRQAPGQGLEWMGMINPSVGSTNYAQKFQGRVTLTRDTSTHTVYMELSSLRSEDTAVYFCARDPWFCSRGTSCYYFGLWGQGTLVTVSS VL: DIQLTQSPSSLSASVGDSVTITCRASQSISTYLNWYQQKPGKAPKLLIYDASSLLSGVPSRFSGGGSGTDFTLTISSLQPEDFATYYCQQSDISPPVFGRGTKVEIKR
**Result** 74

**Query** Try this binder too: hCDIFA-48 (antibody, V domains shown) VH: QVQLVQSGAEVKKPGASVKVSCKASGYTFTTYAMHWVRQAPGHRLEWMGWINPVNGNSKHSQNFQGRVTITRDTSASTVYMELSSLRSEDTAVYYCARDTSSGVILANNFDYWGQGTLVTVSS VL: DIVMTQSPATLSLSPGERATLSCRASQSVDSYLTWYQQKPGQAPRLLIYDSSNRATGIPARFSGSGSGTDFTLTISSLEPEDFAVYYCHQRSNWPNTFGQGTKVEIKR
**Result** 87

More entries:
**Query** // query Kd value for entry hCDIFA-15 (antibody, V domains shown) VH: QVQLVQSGAEVKKPGASVKISCKASGYTFVRYYMHWVRQAPGQGLEWMGLIDPSGGSTRYAQRFQGRVTMTRDTSTSTVYMELSGLRSEDTAVYYCARDGPFGGLSGGNWFDPWGQGTLVTVSS VL: AIRMTQSPGTLSLSPGERATLSCRASQSLSFSYLAWYQQKPGQAPRLLIYGASSRATGIPDRFSGSGSGTDFALTISRLEPEDFAVYYCQQYGTSPLTFGGGTKVDIKR
**Result** 38
